Hey, just so you know, these numbers are from the supplement of paper PMC10724198.

System: Saccharomyces cerevisiae;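 also: PSI is a weighted mean of sequencing reads over stability bins, variants kept only with over 10 reads, mCherry proximal and sfGFP distal, peptide attached via GGGS linker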
Assay: protein stability index of tFT-peptide fusion (C-terminal peptide) (PSI (0-1 scale)); higher = more stable (slower turnover)
Conditions: genetic background: wild type; temperature: 30 C
endpointLabel: protein stability index

>>> print(df.to_string())
    polymersequence  observedresult
 0     AFFGIYLICFIV           0.125
 1     YRHYGVARKKLA           0.134
 2     IACISCLLCVVV           0.504
 3     LRVVVGLCMCVL           0.395
 4     LSVRLYRTVFLV          0.0721
 5     NGLVCVFILSWY           0.238
 6     IRWCLVSVFYVV          0.0978
 7     GLYFFVVRIFKV           0.184
 8     AWPGRLWYFWLA           0.215
 9     CGFVFFVLVVFW           0.114
10     VLRLLARRHAMV           0.145
11     RAVLRFVMVWVL           0.244
12     FCCLIGYIWYGW           0.363
13     GFGDKVPWRWVI           0.135
14     GLLLRLRNLFCM           0.391
15     WVFYAVRWRTWN           0.066
16     LPLSPPPLPSSR           0.663
17     ERNERKYKIKIT           0.239
18     SSLAKFQLISTY           0.305
19     LYVQSVCFSVPR           0.431
20     FRSMFLFLNLLF           0.371
21     YYQVSQKIQRKQ           0.371
22     FFVFPFGLLFLS           0.232
23     NWAIEIRSVKIV           0.183
24     AMRTIFFPAFVS           0.157
25     LVIFSLLFSFSH           0.232
26     LFLIYCFAFSIG           0.239
27     PRQPSKSNASNR           0.635
28     SWELKWVYARVV          0.0851
29     WCVRRVRFVMGC           0.234
30     LFSVFSLVLFIF           0.272
31     VVFVFIDLGLCV           0.223
32     WLFFVVLPVKAF           0.131
33     CFFILSLMVVVI          0.0999
34     VICSLFRYIMRL           0.132
35     PSPFHSFYLRLI           0.249
36     WLLSFLRFLVLR           0.298
37     SRSYNSPSLYVC           0.102
38     IVVSSRFLGFFC           0.102
39     TEHIIAFKASVN           0.104
40     FYIRFYVYSWLF           0.303
41     SIWVGSRFRWVV           0.134
42     EVVFHVFLVGLV           0.274
43     VFFVLAVVGADA           0.306
44     ACGAGFIILLGL           0.522
45     GVAILFTFFRLL          0.0756
46     TCPFTIHRLKVG           0.137
47     VWSCILPMVYVW           0.158
48     FVWVVRMLVFVP            0.16
49     VVGILVLASWDL           0.225
50     FYLSSCFLFLRF           0.288
51     FKKIKGKIEKKN           0.336
52     LRFYLLTPPSPA           0.494
53     LLRFFPLLLFSF           0.116
54     KTDVYPVSFFTC          0.0951
55     EGGGGRFWVCVG           0.298
56     SRVCVLTGISCA           0.421
57     FERVEYEVLGIG            0.38
58     LLSPFLLMLLFL             0.2
59     WVLSRAAFVFFF           0.337
60     FELSVSVFQSVV           0.384
61     LSLWLFRILSVR           0.341
62     MRLQLTFSILLF            0.37
63     GGRSLYAILCAV           0.197
64     FFMLWCRVLLRL           0.145
65     RGKVVRGLLFCA           0.151
66     GGSLWLVHLKTI           0.158
67     WLVCAGWVVLSC           0.175
68     FLLPWLRPVFFF           0.218
69     HLILWLFFVIVF           0.186
70     RGFIFFALWSFC            0.35
71     MGVTVRVEGIRA           0.383
72     DVVRWQRVRNYV             0.3
73     PLLSATLTRRLA            0.19
74     EKHRRYAITKFI           0.196
75     SLLFPLPRPLLD           0.672
76     KKNLTHSIRVQA           0.377
77     GGYGAGLRSPLF           0.661
78     LLVRYRRALVLL          0.0953
79     VRFGYGRIVWDI           0.496
80     YVSLPFVVWWFC           0.198
81     FIGVLVYICREG           0.228
